Reference source: patent US20090203886A1

Target: T1, human CD20 antigen (human, UniProt P11836 1-297)
T1 construct: whole, on cells; also called CD20 on Raji cells; CD20/CHO cells
T1 sequence (looked up): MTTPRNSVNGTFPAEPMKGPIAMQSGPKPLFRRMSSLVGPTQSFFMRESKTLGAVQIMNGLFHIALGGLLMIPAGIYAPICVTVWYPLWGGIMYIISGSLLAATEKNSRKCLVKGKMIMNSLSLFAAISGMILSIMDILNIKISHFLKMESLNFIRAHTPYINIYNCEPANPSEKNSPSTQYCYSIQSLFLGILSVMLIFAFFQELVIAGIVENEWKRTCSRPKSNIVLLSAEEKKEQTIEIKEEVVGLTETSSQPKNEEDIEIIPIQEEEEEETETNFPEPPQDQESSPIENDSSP
Experiment: Scatchard analysis on Raji cells, FITC secondary antibody fluorescence (Example 2)
Measurement Label: pKd
Scale note: pKd = -log10(concentration in M).

Ask | Tell me the measured pKd of 1K0924 murine anti CD20 monoclonal antibody (antibody, mouse IgG2b, V domains shown, also called m0924) VH: QVQLQQPGAELVKPGASVKMSCKASGYTFTSYNIHWVKQTPGQGLEWIGAIYPGNGDTSYNQKFKGKATLTSDKSSSTAYMQLSSLTSEDSAVYYCARMSTMITGFDYWGQGTTLTVSS VL: QIVLSQSPAILSASPGEKVTMTCRASSSVSYMHWYQQRPGSSPKPWIYATSNLASGVPARFSGSGSGTSYYFTISRVEAEDAATYYCQQWNSNPPTHGGGTKLEIK , please.
Reply | 8.87

Ask | Tell me the measured pKd of 1K1422 murine anti CD20 monoclonal antibody (antibody, V domains shown, also called m1422) VH: QVQLQQPGAELVKPGASVKMSCRASGYTFTNYNMHWIKQTPGQGLEWIGAIYPGSGDTSYNRKFKGKATLTADTSSSTAYMQFSSLTSADSAVYYCARFTYYYGGTYGAMDYWGQGTSVTVSL VL: QIVLTQSPPIMSASLGEEITLTCSASSRVSYMLWYQQKSGTSPKLLIYSTSNLASGVPSRFSGSGSGTFYSLTISSVEAEDAADYYCHQWTSNPCTFGGGTKLEIK , please.
Reply | 8.47

Ask | Tell me the measured pKd of 1K1402 murine anti CD20 monoclonal antibody (antibody, V domains shown, also called m1402) VH: QVQLQQPGAELVKPGASVKMSCKASGFTFTSYNMHWVKQTPGQGLEWIGGIYPGNGDTSYNQKFKGKATLTADKSSSTAYMQLSSLTSEDSAVYYCARFYYYGSMGAMDYWGQGTSVTVSS VL: QIVLSQSPAILSASPGEKVTMTCRASSSVSYMHWYQQKPGSSPKPWIYATSNLASGVPARFSGSGSGTSYSLTITRVEAEDAATYYCQQWTFNPPTFGAGTKLELK , please.
Reply | 9.11
